# assay comment: MRP1 drug-resistance reversers in H69AR cells – cell-based, doxorubicin co-treatment, primary screen (AID 602)
# cond: H69AR cells + 2 uM doxorubicin, CellTiter-Glo, 72 h; measured here: viability with 2 uM doxorubicin; at 10 µM; stronger effect = lower value
The campaign covered roughly 85,000 compounds. About 35 (0.04%) were called active. The entries come from a sample that favours actives as a whole.
Answer each item with its documented viability.
Give the value; after it, write the unit.

Exercise: Need viability of Cc1cccc(N2CCN(C(c3ccc(N(C)C)cc3)c3nnnn3C(C)(C)C)CC2)c1C (stereo not drawn) , thanks.
Key: 81%

Exercise: Need viability of CCCC(C)C(=O)Nc1ccc(NC(C)=O)cc1 (stereo not drawn) , thanks.
Key: 80.5%

Exercise: Need viability of Cc1ccc(O)c(CNc2nc3ccccc3n2C)c1 , thanks.
Key: 84.6%

Exercise: Need viability of CC(C)C(=O)NC(NC(=S)NC1CCS(=O)(=O)C1)C(Cl)(Cl)Cl (stereo not drawn) , thanks.
Key: 95.7%

Exercise: Need viability of CS(=O)(=O)N(CC(O)Cn1c2ccccc2c2ccccc21)c1cccc2ccccc12 (stereo not drawn) , thanks.
Key: 12%

Exercise: Need viability of CCSc1ccccc1C(=O)NCc1ccc(OC)cc1 , thanks.
Key: 84.9%

Exercise: Need viability of Cc1nnc(NCCO)c2ccccc12 , thanks.
Key: 82.3%

Exercise: Need viability of COc1ccc(CCNS(=O)(=O)c2ccc(Cl)s2)cc1OC , thanks.
Key: 79.3%

Exercise: Need viability of CC/C(O)=N\S(=O)(=O)c1ccc(N=NN(C)C)cc1 , thanks.
Key: 86.7%

Exercise: Need viability of Cn1c(SCC(=O)C(C)(C)C)nnc1-c1ccccn1 , thanks.
Key: 95%

Exercise: Need viability of O=S(=O)(Cc1cc(Sc2ccccc2)nc(-c2ccccc2)n1)c1ccccc1 , thanks.
Key: 91.4%

Exercise: Need viability of Cc1cc(C)c(NC(=O)CN2CCOCCOCCOCCOCC2)c(C)c1 , thanks.
Key: 89%

Exercise: Need viability of CCCc1nc(NCc2ccc3c(c2)OCO3)c2nnn(Cc3ccccc3Cl)c2n1 , thanks.
Key: 23%

Exercise: Need viability of C=CCc1ccc(OCCOc2cccc(/C=N/n3cnnc3)c2)c(OC)c1 , thanks.
Key: 71.3%

Exercise: Need viability of N=c1c2c3c(sc2nc2n1CCCCC2)CCCC3 , thanks.
Key: 75.2%

Exercise: Need viability of COC(CNC(=O)Cn1ncc2ccsc2c1=O)OC , thanks.
Key: 103%

Exercise: Need viability of Cc1ccc(S(=O)(=O)N2CCN(S(=O)(=O)N3CCOCC3)CC2)cc1 , thanks.
Key: 89.8%

Exercise: Need viability of CC(=O)Nc1ccc(N2C(=O)CCC2=O)cc1C , thanks.
Key: 86.7%

====

# assay comment: MRP1 drug-resistance reversers in H69AR cells – cell-based, doxorubicin co-treatment, primary screen (AID 602)
# cond: H69AR cells, CellTiter-Glo, 72 h; measured here: cytotoxicity without doxorubicin; at 10 µM
Hit rate of the full screen: of about 85,000 compounds, about 35 (0.04%) were called active. The sample as a whole holds a higher share of actives than the screen did.
Answer each item with its documented viability.

Exercise: Need viability of O=C(CSc1nc2cccnc2n1Cc1ccccc1)N1CCc2ccccc21 , thanks.
Key: 70.1%

Exercise: Need viability of Cc1ccc(S(=O)(=O)Oc2ccc(/C=N/NC(=O)c3c(Cl)cnn3C)cc2)cc1 , thanks.
Key: 79.2%

Exercise: Need viability of COc1cccc(N(CC(=O)NCCSc2ccccn2)S(C)(=O)=O)c1 , thanks.
Key: 95.5%

Exercise: Need viability of COc1ccc(N2CCN(C(=O)CCc3nc(-c4ccc(C)cc4)no3)CC2)cc1 , thanks.
Key: 98.4%

Exercise: Need viability of O=C(CN1CCCCC1)N1c2ccccc2Sc2ccc(C(F)(F)F)cc21 , thanks.
Key: 86.8%

Exercise: Need viability of Cc1cnc(NC(=O)C2CCCC2)s1 , thanks.
Key: 97.7%

Exercise: Need viability of CC1CCN(S(=O)(=O)c2ccc(S(=O)(=O)NCc3ccco3)cc2)CC1 , thanks.
Key: 75.4%
